Target or system Prostaglandin G/H synthase 2 (Ovis aries): recorded pIC50 listed per item.
pIC50: −log10 of the molar value.
ASSAY METRIC: pIC50

1. OC[C@H]1C[C@](O)(c2ccccc2Cl)[C@@H](c2ccccc2Cl)O1 = > 6.00
2. COc1ccc([C@H]2O[C@@H](CO)C[C@]2(O)c2ccc(OC)cc2)cc1 = > 6.00

* * *

Item-by-item account of logP
Assay: Partition coefficient, log P of the compound
Type: physicochemical
Conditions: octanol/water
ASSAY METRIC: logP

1) O=C(O)[C@H]1C[C@](O)(c2ccc(Cl)cc2)[C@@H](c2ccc(Cl)cc2)O1 (relative stereo) = 3.65
2) OC[C@H]1C[C@](O)(c2ccc(F)cc2)[C@@H](c2ccc(F)cc2)O1 = 2.78
3) O=C(O)[C@H]1C[C@](O)(c2ccc(F)cc2)[C@@H](c2ccc(F)cc2)O1 (relative stereo) = 2.89
4) O=C(O)[C@H]1C[C@](O)(c2ccccc2)[C@@H](c2ccccc2)O1 (relative stereo) = 2.61
5) CS(=O)(=O)c1ccc([C@H]2O[C@@H](CO)C[C@]2(O)c2ccc(S(C)(=O)=O)cc2)cc1 = 0.792
6) OC[C@H]1C[C@](O)(c2ccccc2Cl)[C@@H](c2ccccc2Cl)O1 = 3.54
7) OC[C@H]1C[C@](O)(c2ccc(Cl)cc2)[C@@H](c2ccc(Cl)cc2)O1 = 3.54
8) O=C(O)[C@H]1C[C@](O)(c2ccccc2Cl)[C@@H](c2ccccc2Cl)O1 (relative stereo) = 3.65
9) COc1ccc([C@H]2O[C@@H](CO)C[C@]2(O)c2ccc(OC)cc2)cc1 = 2
10) OC[C@H]1C[C@](O)(c2ccccc2)[C@@H](c2ccccc2)O1 = 2.5

* * *

Target: Prostaglandin G/H synthase 1 (Ovis aries)
Conditions: at 1 µM
ASSAY METRIC: inhibition (%)

1. COc1ccc([C@H]2O[C@@H](CO)C[C@]2(O)c2ccc(OC)cc2)cc1 = 22
2. OC[C@H]1C[C@](O)(c2ccccc2Cl)[C@@H](c2ccccc2Cl)O1 = 73
3. O=C(O)[C@H]1C[C@](O)(c2ccc(F)cc2)[C@@H](c2ccc(F)cc2)O1 (relative stereo) = 30
4. O=C(O)[C@H]1C[C@](O)(c2ccccc2)[C@@H](c2ccccc2)O1 (relative stereo) = -1.15
5. OC[C@H]1C[C@](O)(c2ccc(F)cc2)[C@@H](c2ccc(F)cc2)O1 = 22
6. O=C(O)[C@H]1C[C@](O)(c2ccccc2Cl)[C@@H](c2ccccc2Cl)O1 (relative stereo) = 34
7. CS(=O)(=O)c1ccc([C@H]2O[C@@H](CO)C[C@]2(O)c2ccc(S(C)(=O)=O)cc2)cc1 = 55
8. O=C(O)[C@H]1C[C@](O)(c2ccc(Cl)cc2)[C@@H](c2ccc(Cl)cc2)O1 (relative stereo) = 55
9. OC[C@H]1C[C@](O)(c2ccccc2)[C@@H](c2ccccc2)O1 = 2.8
10. OC[C@H]1C[C@](O)(c2ccc(Cl)cc2)[C@@H](c2ccc(Cl)cc2)O1 = 56

* * *

Target: Prostaglandin G/H synthase 2 (Ovis aries)
Details: at 10 µM
Values of inhibition greater than or equal to 70% map to YES; values below map to NO.

1) O=C(O)[C@H]1C[C@](O)(c2ccc(Cl)cc2)[C@@H](c2ccc(Cl)cc2)O1 (relative stereo) = YES
2) COc1ccc([C@H]2O[C@@H](CO)C[C@]2(O)c2ccc(OC)cc2)cc1 = NO
3) OC[C@H]1C[C@](O)(c2ccccc2)[C@@H](c2ccccc2)O1 = YES
4) CS(=O)(=O)c1ccc([C@H]2O[C@@H](CO)C[C@]2(O)c2ccc(S(C)(=O)=O)cc2)cc1 = NO
5) O=C(O)[C@H]1C[C@](O)(c2ccccc2Cl)[C@@H](c2ccccc2Cl)O1 (relative stereo) = YES
6) O=C(O)[C@H]1C[C@](O)(c2ccc(F)cc2)[C@@H](c2ccc(F)cc2)O1 (relative stereo) = YES
7) OC[C@H]1C[C@](O)(c2ccc(F)cc2)[C@@H](c2ccc(F)cc2)O1 = YES

Where these numbers come from: ChEMBL document CHEMBL1154444
